Provenance of the data: patent US20240124408A1

Target: human TRPM8 (Homo sapiens, UniProt Q7Z2W7)
Construct: expressed in transfected cells; host or cells: CHO (p658 mammalian expression vector)
Sequence (Q7Z2W7 whole entry): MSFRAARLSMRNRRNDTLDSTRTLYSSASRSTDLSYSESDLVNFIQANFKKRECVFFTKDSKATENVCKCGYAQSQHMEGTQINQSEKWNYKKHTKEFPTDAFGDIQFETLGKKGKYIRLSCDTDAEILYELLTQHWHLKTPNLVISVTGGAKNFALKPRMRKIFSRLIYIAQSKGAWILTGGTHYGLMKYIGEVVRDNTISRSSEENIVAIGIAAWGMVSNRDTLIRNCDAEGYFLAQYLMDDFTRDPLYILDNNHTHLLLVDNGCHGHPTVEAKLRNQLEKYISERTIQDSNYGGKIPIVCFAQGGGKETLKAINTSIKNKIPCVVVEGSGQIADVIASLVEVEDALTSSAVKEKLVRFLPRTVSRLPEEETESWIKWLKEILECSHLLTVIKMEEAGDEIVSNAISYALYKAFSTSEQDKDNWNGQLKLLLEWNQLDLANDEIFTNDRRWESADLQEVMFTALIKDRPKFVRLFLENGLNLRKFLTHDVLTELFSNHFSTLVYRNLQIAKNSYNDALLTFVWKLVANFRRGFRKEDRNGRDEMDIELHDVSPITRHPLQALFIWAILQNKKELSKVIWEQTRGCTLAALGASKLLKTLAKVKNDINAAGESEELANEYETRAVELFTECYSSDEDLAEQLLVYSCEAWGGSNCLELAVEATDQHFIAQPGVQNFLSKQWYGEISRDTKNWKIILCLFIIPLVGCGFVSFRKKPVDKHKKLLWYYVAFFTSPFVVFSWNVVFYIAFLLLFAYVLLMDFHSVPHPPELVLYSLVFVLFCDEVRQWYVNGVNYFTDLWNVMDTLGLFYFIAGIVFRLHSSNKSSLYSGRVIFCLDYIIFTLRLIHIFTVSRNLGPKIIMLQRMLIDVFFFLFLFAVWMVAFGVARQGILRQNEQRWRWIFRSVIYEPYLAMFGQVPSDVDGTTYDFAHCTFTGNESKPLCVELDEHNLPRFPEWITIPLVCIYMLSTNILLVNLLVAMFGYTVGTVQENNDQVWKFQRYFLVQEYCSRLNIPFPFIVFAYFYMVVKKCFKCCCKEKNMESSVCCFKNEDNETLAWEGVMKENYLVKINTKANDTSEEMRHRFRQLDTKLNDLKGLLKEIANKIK
Experiment: In vitro human TRPM8 fluorescence calcium flux assay (recombinant CHO cells, Fluo4-AM, FDSS6000)
Format: cell-based
Settings: recombinant CHO cells expressing human TRPM8; menthol-related EC50, normalized to 100 μM menthol
Each record is given Yes if its reported EC50 is strictly below 40 nM. Records at or above 40 nM are given No.

- molecule: "Cc1cccnc1CCNC(=O)[C@]1(O)C[C@H](C)CC[C@H]1C(C)C"
  label: "No"
- molecule: "CC(C)[C@@H]1CC[C@@H](C)C[C@@]1(O)C(=O)NCCc1cccc2c1OCC2"
  label: "Yes"
- molecule: "CC(C)[C@@H]1CC[C@@H](C)C[C@@]1(O)C(=O)NCC(=O)c1cccs1"
  label: "Yes"
- molecule: "CC(C)[C@@H]1CC[C@@H](C)C[C@@]1(O)C(=O)NC[C@H](O)c1cccc(O)c1"
  label: "No"
- molecule: "Cc1ccccc1CCNC(=O)[C@]1(O)C[C@H](C)CC[C@H]1C(C)C"
  label: "Yes"
- molecule: "CCOC(=O)c1cccc(CCNC(=O)[C@]2(O)C[C@H](C)CC[C@H]2C(C)C)c1"
  label: "No"
- molecule: "COC(=O)CC(CNC(=O)[C@]1(O)C[C@H](C)CC[C@H]1C(C)C)c1ccccc1 (stereo partly drawn)"
  label: "No"
- molecule: "COc1cc(CCNC(=O)[C@]2(O)C[C@H](C)CC[C@H]2C(C)C)cc(OC)c1"
  label: "No"

====

Molecular target: human TRPM8 (Homo sapiens, UniProt Q7Z2W7)
Construct: expressed in transfected cells; host or cells: CHO (p658 mammalian expression vector)
Assay: In vitro human TRPM8 automated patch-clamp assay (SyncroPatch 384PE, CHO cells)
Type: cell-based
Conditions: CHO cells expressing human TRPM8, 28° C.
pEC50: −log10 of the molar value.
Let's look at some molecules and their measured pEC50.
property-name: pEC50

- molecule: "CC(C)[C@@H]1CC[C@@H](C)C[C@@]1(O)C(=O)NCCc1ccccc1"
  assay-result: 5.52
- molecule: "COc1ccc(CCNC(=O)[C@]2(O)C[C@H](C)CC[C@H]2C(C)C)cc1OC"
  assay-result: 5.85
- molecule: "COC(=O)CCc1ccccc1CCNC(=O)[C@]1(O)C[C@H](C)CC[C@H]1C(C)C"
  assay-result: 5.55
- molecule: "CC(C)[C@@H]1CC[C@@H](C)C[C@@]1(O)C(=O)NCCc1ccc(O)cc1"
  assay-result: 5.60
- molecule: "CC(C)[C@@H]1CC[C@@H](C)C[C@@]1(O)C(=O)NCCc1cccc(C#N)c1"
  assay-result: 5.58
- molecule: "Cc1cccc(CCNC(=O)[C@]2(O)C[C@H](C)CC[C@H]2C(C)C)c1"
  assay-result: 5.99
- molecule: "CC(C)[C@@H]1CC[C@@H](C)C[C@@]1(O)C(=O)NCC(CCO)c1ccccc1 (stereo partly shown)"
  assay-result: 5.43
- molecule: "CC(C)[C@@H]1CC[C@@H](C)C[C@@]1(O)C(=O)NCCc1cccc(C(N)=O)c1"
  assay-result: 5.71
- molecule: "CC(C)[C@@H]1CC[C@@H](C)C[C@@]1(O)C(=O)NCC(O)c1cccc(CO)c1 (stereo partly shown)"
  assay-result: 5.51
- molecule: "CC(C)[C@@H]1CC[C@@H](C)C[C@@]1(O)C(=O)NCC(O)c1cccc(O)c1 (stereo partly shown)"
  assay-result: 5.91
- molecule: "CC(C)[C@@H]1CC[C@@H](C)C[C@@]1(O)C(=O)NCCc1cccc(C(=O)OCCO)c1"
  assay-result: 5.26
- molecule: "CC(C)[C@@H]1CC[C@@H](C)C[C@@]1(O)C(=O)NCC(F)(F)c1ccccc1"
  assay-result: 6.27
- molecule: "CC(C)[C@@H]1CC[C@@H](C)C[C@@]1(O)C(=O)NCC(=O)Nc1ccc(O)cc1"
  assay-result: 5.82
- molecule: "CC(C)[C@@H]1CC[C@@H](C)C[C@@]1(O)C(=O)NCC(NC(=O)[C@H](C)N)c1ccccc1 (single isomer, unassigned)"
  assay-result: 7.18
- molecule: "CC(C)[C@@H]1CC[C@@H](C)C[C@@]1(O)C(=O)NCC(CO)c1ccccc1 (single isomer, unassigned) [Example 89]"
  assay-result: 5.48
- molecule: "CC(C)[C@@H]1CC[C@@H](C)C[C@@]1(O)C(=O)NCCc1ccccc1OCCN"
  assay-result: 7.14
- molecule: "CC(C)[C@@H]1CC[C@@H](C)C[C@@]1(O)C(=O)NCCOC(=O)c1ccccc1"
  assay-result: 5.29
- molecule: "CC(C)[C@@H]1CC[C@@H](C)C[C@@]1(O)C(=O)NCCc1ccccc1OCC[N+](C)(C)C"
  assay-result: 5.43
- molecule: "CC(C)[C@@H]1CC[C@@H](C)C[C@@]1(O)C(=O)NC[C@@H](O)c1cccc(CO)c1"
  assay-result: 5.74
